- target: AgSla1-D1-D2
- experiment: SPOT peptide array binding signal intensity (averaged, normalized) (arbitrary units (background-subtracted, floor 0; scale differs between SH3 domains)); higher = stronger binding of the SH3 domain to the peptide
measurement_label: SPOT peptide array binding signal intensity

Here's what some known entries look like.
binder: GLRRARYKFPGQQKI
measured_value: 228
--
binder: ISPPASPPPEFDFSK
measured_value: 5
--
binder: RRSKSLPTTPGIRSG
measured_value: 469

Query block: Param item = LRWRHKFFLPAIAAI ; retrieve measured SPOT peptide array binding signal intensity.
Result block: 2.5

Query block: Param item = FPPKRKPLLRPQRSD ; retrieve measured SPOT peptide array binding signal intensity.
Result block: 230

Query block: Param item = PLRRTVMSLPGNHDI ; retrieve measured SPOT peptide array binding signal intensity.
Result block: 24.2

Query block: Param item = NMLKKKPLKKPLKRF ; retrieve measured SPOT peptide array binding signal intensity.
Result block: 415

src = the supplement of paper PMC4466140
